// provenance: paper PMC11602162

This section presents binders with their documented binding signal values.
# target_system: N-NTD (SARS-CoV-2 (Wuhan-Hu-1), UniProt P0DTC9 46-174)
# method_notes: DSF; 10 mM Tris-HCl pH 7.4, 150 mM NaCl, 1 mM MgCl2; […]; BLI with 0.05% Tween-20; […]

Known binding signal results, listed for orientation:
[
  {
    "binder": "UCGGACAUCGGAUUGUCUGA (ssRNA) [A58-20_RNA]",
    "binding signal": "-0.5 C (Tm shift)"
  },
  {
    "binder": "TCGGACATTTTTTTGTCTGA (ssDNA) [A58-20 TTTTTT]",
    "binding signal": "0.5 C (Tm shift)"
  },
  {
    "binder": "TCGGACATCGGATTGTCCGA (ssDNA) [A58-20_nwb2]",
    "binding signal": "4.5 C (Tm shift)"
  }
]

With those in mind, consider the next binder.
Query block: Quick check: binding signal of TCAGACATCGGATTGTCTGA (ssDNA) [A58-20_nwb1] ?
Result block: 4.5 C (Tm shift)
